Tested on: Trypanosoma brucei
Assay: Inhibition of blood stream form of Trypanosoma brucei overexpressing trypanothione synthase after 72 hrs
Format: functional, organism-based
testReadout: EC50 (µM)

> print(dat)
                                  smilesstr  measuredvalue
1  CN(C)CCCNC(=O)Cn1nc(-c2cccc(F)c2)c2ccccc21             23

----------
Molecular target: CDK2/Cyclin A2 (Homo sapiens, UniProt P24941)
Experiment: Inhibition of human CDK2/Cyclin A
pIC50: −log10 of the molar value.
# pIC50 listing for each entry below
testReadout: pIC50

> print(dat)
                                  smilesstr  measuredvalue
1    COc1cccc(NC(=O)NC2=CC(=O)CC(C)(C)C2)c1         < 4.00
2   O=C(Nc1cc(-c2ccc(Cl)cc2)n[nH]1)C1CCCCC1         < 4.00
3  Cc1cccc(-c2ccc3nc(NC(=O)CCC4CCCC4)nn3c2)c1         < 4.00
